Kindly state myostatin inhibitory activity at 1 µM (luciferase reporter assay) for each of the entries shown.
Target: T1, myostatin (UniProt O14793 267-375, limits assumed)
T1 sequence (looked up): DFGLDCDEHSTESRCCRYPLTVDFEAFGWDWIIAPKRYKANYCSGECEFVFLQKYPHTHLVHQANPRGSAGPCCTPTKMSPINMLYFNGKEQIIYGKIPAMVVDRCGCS
Assay: cell-based or functional assay
Primed or numbered codes have the meaning given here. m‑dPEG(4) = m-dPEG(4) acid, coupled to Acp, with Acp forms R^111 of Formula (4); Ahx = NCCCCCC(=O)O

For {m‑dPEG(4)-Ahx}-YYIESIKIQIISKLRL-NH2 [PDM-61] the binder record lists myostatin inhibitory activity at 1 µM (luciferase reporter assay) as ≥ 40 % inhibition

Looking up {m‑dPEG(4)-Ahx}-WWIEWIKIQIISKLRL-NH2 [PDM-30] , I see its myostatin inhibitory activity at 1 µM (luciferase reporter assay) listed as ≥ 40 % inhibition

Query {m‑dPEG(4)-Ahx}-WRIEWIKIQIISKLRL-NH2 [PDM-42] yields myostatin inhibitory activity at 1 µM (luciferase reporter assay) of ≥ 40 % inhibition
